# Lookup of reported pIC50 keyed by entry
biological target: cAMP and cAMP-inhibited cGMP 3',5'-cyclic phosphodiesterase 10A (Homo sapiens); assay: Homogenous Time-Resolved Fluorescence Resonance Energy Transfer (TR-FRET) Technology: The phosphodiesterase assay was developed using the LANCE® cAMP kit (PerkinElmer). The assay buffer contained HBSS with 5 mM HEPES, 0.1% BSA, and 1.5 mM MgCl2, pH 7.4. PDE10A (BPS Bioscience) was used at 200 pg/well (with a specific activity of 3200 pmole/min/μg with assay conditions: 10 mM Tris-HCl, pH 7.4, 10 mM MgCl2, 1 mM MnCl2, 200 μM cAMP, 2.5 kU 5′ nucleotidase, 37° C., 20 min) and PDE4D3 (BPS Bioscience) was used at 100 pg/well (with a specific activity of 32713 pmole/min/μg with assay conditions: 10 mM Tris-HCl, pH 7.4, 10 mM MgCl2, 1 mM MnCl2, 200 μM cAMP, 2.5 kU 5′ nucleotidase, 37° C., 20 min). The Biotin-cAMP tracer, supplied in 10 mmol/L Tris-HCl buffered (pH 8.0) salt solution with 1 mmol/L ethylenediaminetetraacetic acid (EDTA), 0.1% bovine serum albumin (BSA), and 0.05% sodium azide, is used at a dilution of 1/375. The assay detection mixture contained the LANCE Eu-W8044 labeled streptavidin 1/2250 (supplied in 50 mmol/L Tris-HCl buffered (pH 7.8) salt solution with 0.9% sodium chloride (NaCl), 0.1% BSA, and 0.05% sodium azide) and the Alexa Fluor® 647-anti cAMP antibody 1/200 (supplied in 50 mmol/L Tris-HCl buffered (pH 7.8) salt solution with 0.9% NaCl, 0.1% BSA, and 0.05% sodium azide). Chemical compounds were dissolved in DMSO (final concentration 2% (v/v)).
Sequence (Q9Y233 whole entry): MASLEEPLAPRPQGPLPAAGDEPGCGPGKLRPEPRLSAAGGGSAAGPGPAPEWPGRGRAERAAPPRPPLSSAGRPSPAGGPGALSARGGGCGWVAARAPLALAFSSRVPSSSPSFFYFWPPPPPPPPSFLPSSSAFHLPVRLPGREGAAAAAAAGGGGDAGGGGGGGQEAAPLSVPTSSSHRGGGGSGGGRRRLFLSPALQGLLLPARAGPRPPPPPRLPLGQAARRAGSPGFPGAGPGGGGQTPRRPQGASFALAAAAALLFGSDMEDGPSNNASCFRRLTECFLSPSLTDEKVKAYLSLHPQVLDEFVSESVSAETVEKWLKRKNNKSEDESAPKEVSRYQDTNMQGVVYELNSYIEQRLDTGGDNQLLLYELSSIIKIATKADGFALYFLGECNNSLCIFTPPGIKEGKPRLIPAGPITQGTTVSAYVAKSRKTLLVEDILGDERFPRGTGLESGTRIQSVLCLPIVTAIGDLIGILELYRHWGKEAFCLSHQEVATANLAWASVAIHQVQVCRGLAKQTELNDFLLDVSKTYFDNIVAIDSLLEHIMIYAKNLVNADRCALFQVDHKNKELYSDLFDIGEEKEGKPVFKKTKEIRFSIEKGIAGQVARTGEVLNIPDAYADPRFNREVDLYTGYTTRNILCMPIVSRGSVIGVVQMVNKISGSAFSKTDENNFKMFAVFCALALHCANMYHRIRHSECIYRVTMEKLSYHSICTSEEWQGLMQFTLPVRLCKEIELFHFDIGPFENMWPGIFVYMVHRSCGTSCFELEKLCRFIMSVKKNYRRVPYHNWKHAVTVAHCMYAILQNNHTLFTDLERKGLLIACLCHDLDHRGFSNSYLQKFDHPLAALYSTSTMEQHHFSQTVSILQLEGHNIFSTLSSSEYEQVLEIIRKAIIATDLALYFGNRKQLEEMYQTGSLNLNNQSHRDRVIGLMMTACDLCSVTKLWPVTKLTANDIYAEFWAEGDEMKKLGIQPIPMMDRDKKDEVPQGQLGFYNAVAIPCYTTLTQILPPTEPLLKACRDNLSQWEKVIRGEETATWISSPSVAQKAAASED
Remember, pIC50 is on a log scale: it is -log10 of the molar concentration.

[[record]]
compound_smiles = "CCCc1ncc(Cc2ccc3cccc(OC(C)(C)C(N)=O)c3n2)c2cc(OC)c(OC)cc12"
system_tested = "cAMP and cAMP-inhibited cGMP 3',5'-cyclic phosphodiesterase 10A (Homo sapiens)"
measured_value = 7.23

[[record]]
compound_smiles = "CCCc1ncc(Cc2cc3cc(OC)ccc3nc2OCC#N)c2cc(OC)c(OC)cc12"
system_tested = "cAMP and cAMP-inhibited cGMP 3',5'-cyclic phosphodiesterase 10A (Homo sapiens)"
measured_value = 6.80


[Q] Reported pIC50 for cAMP and cAMP-inhibited cGMP 3',5'-cyclic phosphodiesterase 10A (Homo sapiens), given `CCn1c2ccccc2c2cc(Cc3cncc4cc(OC)c(OC)cc34)ccc21` ?
[A] 7.59

The reported measurements were obtained from ChEMBL document CHEMBL5726789.
